Test system: HEK293T viability, ATP luminescence, 72 h
Experiment: cytotoxicity in HEK293T cells, dose response, cytotoxicity control, cell-based, CellTiter-Glo luminescence, dry powder (AID 743481)
Activity calls are given as the source filed them.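 How the source made its calls: active means compounds lowering cell ATP signal whose fitted AC50 is at most twice their highest tested dose; inconclusive means flat curve with moderate signal loss, or unreliable fit; inactive means the rest.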
Pick one: active, inactive

Study these solved cases before continuing.
Task item: Identify the outcome logged in this assay for the molecule shown: COc1ccc(S(=O)(=O)N(C)C[C@@H]2OCCCC[C@H](C)Oc3ccc(NS(=O)(=O)c4ccc(Cl)cc4)cc3C(=O)N([C@@H](C)CO)C[C@@H]2C)cc1
Reply: active

Task item: // return assay outcome for C[C@H]1CCCCO[C@@H](CN(C)S(=O)(=O)c2ccc(Cl)cc2)[C@@H](C)CN([C@@H](C)CO)C(=O)c2cc(NC(=O)NC3CCCCC3)ccc2O1
Reply: active

Task item: Could you please tell me the result logged for C[C@H](CO)N1C[C@H](C)[C@H](CN(C)C(=O)Nc2ccc(C(F)(F)F)cc2)OCCCC[C@H](C)Oc2ccc(NC(=O)CCC(F)(F)F)cc2C1=O in this assay?
Reply: inactive

Continue with the next molecule.
Task item: Look up the recorded call for C[C@@H]1CN([C@@H](C)CO)C(=O)c2cc(NC(=O)C3CCCCC3)ccc2O[C@@H](C)CCCCO[C@H]1CN(C)C(=O)Nc1cccc2ccccc12 in this test.
Reply: active

---

Assay: cytotoxicity in HEK293T cells, dose response, cytotoxicity control, cell-based, CellTiter-Glo luminescence, dry powder (AID 743481)
Conditions: HEK293T viability, ATP luminescence, 72 h; at 26 µM (top of the series)
Active and inactive are the calls of the source.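 The calls were made as follows: active = compounds lowering cell ATP signal whose fitted AC50 is at most twice their highest tested dose; inconclusive = flat curve with moderate signal loss, or unreliable fit; inactive = the rest.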
Give measured activity change, negative = cytotoxicity for each item. Keep answers brief.

Task item: Which activity change, negative = cytotoxicity value belongs to C[C@H](CO)N1C[C@H](C)[C@H](CN(C)C(=O)Nc2cccc3ccccc23)OCCCC[C@H](C)Oc2ccc(NC(=O)NC3CCCCC3)cc2C1=O ?
Reply: -18.8% (inactive)

Task item: activity change, negative = cytotoxicity for C[C@H](CO)N1C[C@H](C)[C@H](CN(C)C(=O)Nc2ccc(F)cc2)OCCCC[C@H](C)Oc2ccc(NC(=O)Nc3ccc(F)cc3)cc2C1=O ?
Reply: -12.4% (inactive)

Task item: Using the record for C[C@@H]1CCCCO[C@H](CN(C)C(=O)Nc2cccc3ccccc23)[C@@H](C)CN([C@@H](C)CO)C(=O)c2cc(NC(=O)C3CCCCC3)ccc2O1 , report its activity change, negative = cytotoxicity.
Reply: 6.63% (inactive)

Task item: Find the recorded activity change, negative = cytotoxicity belonging to C[C@H]1CCCCO[C@@H](CN(C)C(=O)Nc2ccc3c(c2)OCO3)[C@@H](C)CN([C@@H](C)CO)C(=O)c2cc(NC(=O)NC3CCCCC3)ccc2O1 and report it.
Reply: -7.34% (inactive)

Task item: What value of measured activity change, negative = cytotoxicity is listed for C[C@H](CO)N1C[C@H](C)[C@H](CN(C)C(=O)Nc2ccccc2)OCCCC[C@H](C)Oc2ccc(NC(=O)NC3CCCCC3)cc2C1=O ?
Reply: -8.51% (inactive)

Could you now consider this next compound?
Task item: Quick one: activity change, negative = cytotoxicity of C[C@H](CO)N1C[C@H](C)[C@H](CN(C)C(=O)Nc2ccccc2)OCCCC[C@H](C)Oc2ccc(NC(=O)Nc3ccc4c(c3)OCO4)cc2C1=O ?
Reply: -5.94% (inactive)

---

Experiment: cytotoxicity in HEK293T cells, dose response, cytotoxicity control, cell-based, CellTiter-Glo luminescence, dry powder (AID 743481)
Details: HEK293T viability, ATP luminescence, 72 h; at 26 µM (top of the series)
Record form. Attribute: activity change, negative = cytotoxicity. Fill in for each entry.
One number for each entry, in %.

Known results for compounds:
Task item: Could you tell me which activity change, negative = cytotoxicity is on file for COc1ccc(NC(=O)N(C)C[C@@H]2OCCCC[C@H](C)Oc3ccc(NC(=O)NC4CCCCC4)cc3C(=O)N([C@H](C)CO)C[C@@H]2C)cc1 ?
Reply: -10.6

Task item: Consider the compound shown here: C[C@@H]1CN([C@@H](C)CO)C(=O)c2cc(NC(=O)C3CCCCC3)ccc2O[C@@H](C)CCCCO[C@@H]1CN(C)C(=O)Nc1cccc2ccccc12 What is its recorded activity change, negative = cytotoxicity?
Reply: -17

Give activity change, negative = cytotoxicity for each of the items listed below.
1. C[C@H](CO)N1C[C@H](C)[C@H](CN(C)C(=O)Nc2ccc3c(c2)OCO3)OCCCC[C@H](C)Oc2ccc(NC(=O)NC3CCCCC3)cc2C1=O
2. C[C@H](CO)N1C[C@H](C)[C@H](CN(C)C(=O)Nc2ccc(F)cc2)OCCCC[C@H](C)Oc2ccc(NC(=O)Nc3ccccc3)cc2C1=O
3. C[C@@H]1CCCCO[C@@H](CN(C)C(=O)Nc2cccc3ccccc23)[C@@H](C)CN([C@H](C)CO)C(=O)c2cc(NC(=O)C3CCCCC3)ccc2O1
4. C[C@H]1CCCCO[C@@H](CN(C)C(=O)Nc2ccccc2)[C@@H](C)CN([C@@H](C)CO)C(=O)c2cc(NC(=O)NC3CCCCC3)ccc2O1

Reply:
1: -11.1; 2: -10.5; 3: -15.4; 4: 3.42

---

Task for the reader: assign each of the following molecules its reported activity change, negative = cytotoxicity.
Experiment: cytotoxicity in HEK293T cells, dose response, cytotoxicity control, cell-based, CellTiter-Glo luminescence, dry powder (AID 743481)
Settings: HEK293T viability, ATP luminescence, 72 h; at 26 µM (top of the series)
One number for each entry, in %.

Worked cases, activity change, negative = cytotoxicity given:
Task item: I have this molecule here, C[C@H](CO)N1C[C@H](C)[C@H](CN(C)C(=O)Nc2ccccc2)OCCCC[C@H](C)Oc2ccc(NC(=O)CCC(F)(F)F)cc2C1=O , and I need its recorded activity change, negative = cytotoxicity.
Reply: -6.87

Task item: Please look up its activity change, negative = cytotoxicity: C[C@H](CO)N1C[C@H](C)[C@H](CN(C)C(=O)Nc2ccc(F)cc2)OCCCC[C@H](C)Oc2ccc(NC(=O)C3CCCCCC3)cc2C1=O
Reply: -6.61

Task item: // returns reported activity change, negative = cytotoxicity for input C[C@H](CO)N1C[C@H](C)[C@H](CN(C)C(=O)Nc2ccc(F)cc2)OCCCC[C@H](C)Oc2ccc(NC(=O)C3CCCC3)cc2C1=O
Reply: 9.39

Task item: Sample Cc1ccc(NC(=O)N(C)C[C@@H]2OCCCC[C@H](C)Oc3ccc(NC(=O)C4CCCCC4)cc3C(=O)N([C@H](C)CO)C[C@@H]2C)cc1 — what was its activity change, negative = cytotoxicity?
Reply: 9.91

Task item: Form field: reported activity change, negative = cytotoxicity of C[C@@H]1CCCCO[C@@H](CN(C)C(=O)Nc2cccc3ccccc23)[C@H](C)CN([C@@H](C)CO)C(=O)c2cc(NC(=O)C3CCCCC3)ccc2O1
Reply: -12.5

Others:
Task item: Could you tell me which activity change, negative = cytotoxicity is on file for C[C@H](CO)N1C[C@H](C)[C@H](CN(C)C(=O)Nc2ccc(F)cc2)OCCCC[C@H](C)Oc2ccc(NC(=O)C3CCOCC3)cc2C1=O ?
Reply: -1.32

---

Test: cytotoxicity in HEK293T cells, dose response, cytotoxicity control, cell-based, CellTiter-Glo luminescence, dry powder (AID 743481)
Details: HEK293T viability, ATP luminescence, 72 h; at 26 µM (top of the series)
Assay endpoint: activity change, negative = cytotoxicity (%)
Numbers only, in %.

// solved cases for activity change, negative = cytotoxicity follow
Task item: Endpoint output: activity change, negative = cytotoxicity of C[C@H](CO)N1C[C@H](C)[C@H](CN(C)C(=O)Nc2ccc(F)cc2)OCCCC[C@H](C)Oc2ccc(NC(=O)NC3CCCCC3)cc2C1=O . Value?
Reply: -9.87

Task item: Which activity change, negative = cytotoxicity value is on record for C[C@H](CO)N1C[C@H](C)[C@H](CN(C)C(=O)Nc2ccc(F)cc2)OCCCC[C@H](C)Oc2ccc(NC(=O)C3CC3)cc2C1=O ?
Reply: -1.35

Task item: Quick one: activity change, negative = cytotoxicity for CC(C)(C)c1ccc(-c2nc(-c3ccncc3)no2)cc1 ?
Reply: -16.3

Task item: For the compound shown here, C[C@H](CO)N1C[C@H](C)[C@H](CN(C)C(=O)Nc2ccc(C(F)(F)F)cc2)OCCCC[C@H](C)Oc2ccc(NC(=O)NC3CCCCC3)cc2C1=O , give the reported activity change, negative = cytotoxicity.
Reply: 5.48

Task item: What does the record list as activity change, negative = cytotoxicity for C[C@H]1CCCCO[C@@H](CN(C)C(=O)Nc2cccc3ccccc23)[C@@H](C)CN([C@@H](C)CO)C(=O)c2cc(NC(=O)C3CCCCC3)ccc2O1 ?
Reply: -14.3

Task item: For the compound COc1ccc(NC(=O)N(C)C[C@@H]2OCCCC[C@H](C)Oc3ccc(NC(=O)C4CCCCC4)cc3C(=O)N([C@H](C)CO)C[C@@H]2C)cc1 , what activity change, negative = cytotoxicity is on record?
Reply: -7.25

Then this compound:
Task item: I'd like to know its activity change, negative = cytotoxicity. The compound in question is C[C@H](CO)N1C[C@H](C)[C@H](CN(C)C(=O)Nc2ccc(F)cc2)OCCCC[C@H](C)Oc2ccc(NC(=O)C3CCCCC3)cc2C1=O
Reply: -7.09

Origin of the recorded values: PubChem BioAssay AID743481
